# target-of-assay: wildtype Kras / hSOS1 (Homo sapiens, UniProt P01116)
# Construct: made in house; host or cells: E. coli BL21 (DE3)
# Sequence (P01116 1-188 isoform P01116-2): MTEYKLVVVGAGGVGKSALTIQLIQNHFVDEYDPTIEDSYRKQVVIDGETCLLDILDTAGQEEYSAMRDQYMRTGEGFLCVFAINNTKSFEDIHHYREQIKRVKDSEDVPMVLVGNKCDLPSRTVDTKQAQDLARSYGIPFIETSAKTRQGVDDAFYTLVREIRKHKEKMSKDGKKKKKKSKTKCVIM
# experiment: HTRF assay, wildtype Kras / SOS1 interaction
# Assay type: binding
# condition-summary: compound nos. 102-196, general methodology of example 5; read-out: IC50 against wildtype Kras
recorded-endpoint: IC50

Sample answers from the record:
N#CC1CCCN(c2nc(OCC34CCCN3CCC4)nc3c(F)c(-c4ccc(F)c5sc(N)nc45)c(Cl)cc23)CC1 (centres unmarked) [Compound 172]; < 500 nM
Nc1nc2c(-c3c(Cl)cc4c(N5CCNCC(F)(F)C5)nc(OCC56CCCN5C(=O)CC6)nc4c3F)cccc2s1 (centres unmarked) [Compound 151]; > 500 nM

Quick batch: IC50 for everything below.
1. Cc1ccnc(C(C)C)c1-n1c(=O)nc(N2CCNCC(F)(F)C2)c2cc(F)c(-c3cccc4sc(N)nc34)nc21 [Compound 111]
2. CN1CCC[C@H]1COc1nc(N2CCNCC(F)(F)C2)c2cc(Cl)c(-c3ccc(F)c4sc(N)nc34)c(F)c2n1 [Compound 104]
3. Cc1ccnc(C(C)C)c1-n1c(=O)nc(N2CCNCC(F)(F)C2)c2cc(F)c(-c3cc(O)cc4ccccc34)nc21 [Compound 196]
4. CN1CCC[C@H]1COc1nc(N2CCNCC(F)(F)C2)c2cc(Cl)c(-c3cccc4sc(NCC(F)(F)F)nc34)c(F)c2n1 [Compound 149]
5. CN1CCC[C@H]1COc1nc(N2CCNCC(F)(F)C2)c2cc(Cl)c(-c3cccc4nc(N)sc34)c(F)c2n1 [Compound 184]
6. CN1CCC[C@H]1COc1nc(N2CCNCC(F)(F)C2)c2cc(Cl)c(-c3cccc4sc(N)nc34)c(F)c2n1 [Compound 102]
7. CN1CCC[C@H]1COc1nc(N2CCNCC(C)(C)C2)c2cc(Cl)c(-c3cccc4sc(N)nc34)c(F)c2n1 [Compound 118]
8. CN1CCC[C@H]1COc1nc(N2CCNC(=O)CC2)c2cc(Cl)c(-c3cccc4sc(N)nc34)c(F)c2n1 [Compound 142]

> 500 nM
< 500 nM
> 500 nM
> 500 nM
> 500 nM
< 500 nM
> 500 nM
< 500 nM

====

# target-of-assay: wildtype Kras / hSOS1 (Homo sapiens, UniProt P01116)
# Construct: made in house; host or cells: E. coli BL21 (DE3)
# experiment: HTRF assay, wildtype Kras / SOS1 interaction
# Type: binding
# condition-summary: compound nos. 401-703; read-out: IC50 against wildtype Kras
pIC50: −log10 of the molar value.
recorded-endpoint: pIC50

Nc1cccc(-c2c(Cl)cc3c(N4CCCCCC4)nc(OCC45CCCN4CCC5)nc3c2F)c1F [Compound 430]; > 6.30

Quick batch: pIC50 for everything below.
1. Nc1cc(-c2c(Cl)cc3c(N4CC5CCC(C4)N5)nc(OCC45CCCN4CCC5)nc3c2F)c2ccccc2c1 [Compound 564]
2. Nc1nc2c(-c3c(Cl)cc4c(N5CC6CCC(CC6)C5)nc(OC[C@@]56CCCN5C[C@H](F)C6)nc4c3F)ccc(F)c2s1 [Compound 690]
3. Nc1ccc2cccc(-c3ccc4c(N5CC6CCC(C5)N6)nc(OCC56CCCN5CCC6)nc4c3F)c2n1 [Compound 596]
4. Cc1ccc2oc(N)nc2c1-c1c(Cl)cc2c(N3CCNCC(F)(F)C3)nc(OC[C@@]34CCCN3C[C@H](F)C4)nc2c1F [Compound 463]
5. Fc1c(-c2cccc3ccsc23)c(Cl)cc2c(N3CC4CCC(C3)N4)nc(OC[C@@]34CCCN3C[C@H](F)C4)nc12 [Compound 560]

["< 6.30", "< 6.30", "< 6.30", "> 6.30", "< 6.30"]

Quick batch: pIC50 for everything below.
1. Oc1cc(-c2cnc3c(N4CC5CCC(C4)N5)nc(OC[C@@]45CCCN4C[C@H](F)C5)nc3c2)c2ccccc2c1 (single isomer, unassigned) [Compound 429]
2. Cc1ccc(C2(N)CC2)cc1-c1c(Cl)cc2c(N3CC4CCC(C3)N4)nc(OCC34CCCN3CCC4)nc2c1F [Compound 661]
3. Cc1ccc2cnn(C)c2c1-c1c(Cl)cc2c(N3CC4CCC(C3)N4)nc(OCC3(CN4CCCC4)CC3)nc2c1F [Compound 438]
4. N#CC1C2CCC1CN(c1nc(OC[C@@]34CCCN3C[C@H](F)C4)nc3c(F)c(-c4ccc(F)c5sc(N)nc45)c(Cl)cc13)C2 (stereo partly shown) [Compound 403]
5. CNCC1CN(c2nc(OCC34CCCN3CCC4)nc3c(F)c(-c4ccc(F)c5sc(N)nc45)c(Cl)cc23)CCCO1 (stereo not shown) [Compound 481]
6. Cc1ccc2sc(N)nc2c1-c1c(Cl)cc2c(N3CCNCC(F)(F)C3)nc(OCC34CCCN3CCC4)nc2c1O [Compound 426]
7. Nc1nc2c(-c3c(Cl)cc4c(N5CCC[C@@H](O)CC5)nc(OC[C@@]56CCCN5C[C@H](F)C6)nc4c3F)ccc(F)c2s1 [Compound 480]

> 6.30
< 6.30
> 6.30
> 6.30
> 6.30
> 6.30
> 6.30
